measuredTarget: huCTLA4 (Homo sapiens, UniProt P16410)
Sequence (P16410 36-223): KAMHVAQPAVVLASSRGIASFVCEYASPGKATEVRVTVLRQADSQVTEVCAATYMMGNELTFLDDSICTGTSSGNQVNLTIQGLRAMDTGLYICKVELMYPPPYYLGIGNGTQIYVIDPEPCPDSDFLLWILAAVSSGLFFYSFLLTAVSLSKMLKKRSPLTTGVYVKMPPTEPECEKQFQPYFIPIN
testName: Flow binding to CHO cells stably expressing CTLA4
Design: huCTLA4 and huPD-L1, full-length mammalian surface expression constructs were generated; expressed in transfected cells; host or cells: CHO cells, lentiviral transduction, sorted to >98% purity
testConditions: Table E4; MFI ratio to WT CD80 ECD-Fc (R&D) at 33.3 nM
Method: Binding of selected immunomodulatory fusion proteins to cognate binding partners was assessed. […] Cells were sorted in a Bio-Rad S3 Cell Sorter (Bio-Rad Corp., USA) to >98% purity. […] For staining and analysis by flow cytometry, 100,000 cells of appropriate transfected cells were plated in 96-well round bottom plates. […] Cells were then washed twice with 150 μL/well stain buffer, fixed in 2% formaldehyde/PBS, and analyzed on Intellicyt flow cytometer (Intellicyt Corp., USA). […]
experimentalEndpoint: CTLA4 Fold change to WT CD80
When you answer, write just the number.

So what's the measured CTLA4 Fold change to WT CD80 for this one? R29H/E35D/M43V/M47I/I49V (protein, UniProt P33681 35-288, looked up, variant R29H E35D M43V M47I I49V) T-lymphocyte activation …: VIHVTKEVKEVATLSCGHNVSVEELAQTHIYWQKDKKMVLTMVSGDINVWPEYKNRTIFDITNNLSIVILALRPSDEGTYECVVLKYEKDAFKREHLAEVTLSVKADFPTPSISDFEIPTSNIRRIICSTSGGFPEPHLSWLENGEELNAINTTVSQDPETELYAVSSKLDFNMTTNHSFMCLIKYGHLRVNQTFNWNTTKQEHFPDNLLPSWAITLISVNGIFVICCLTYCFAPRCRERRRNERLRRESVRPV
0.03
